Listed below: normalized growth values for each entry.
Experiment: chemical genetic growth profiling, strain panel (AID 1159580);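 further: tested at 20 µM; growth read once vehicle control cultures reached saturation at 30 °C; 1 = growth at the plate median or of vehicle wells; lower values mean less growth of the strain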
Settings: S. cerevisiae deletion strains, growth OD, locus YMR058W, strain fet3, stronger effect = lower value
Hit rate of the full screen: of about 5,500 compounds, about 2,000 (36%) were called active. Not shown: some 18% with an inconclusive outcome. This is one part of the list.
# answer = number (no unit)

Example entries and their recorded answers appear below.
CNCCCN1c2ccccc2CCc2ccccc21	1.02
N[C@H](Cc1ccccc1)C(=O)O	0.987
CC(CN(C)C)CN1c2ccccc2CCc2ccccc21 (configuration not stated)	0.971
CC(CN1c2ccccc2Sc2ccccc21)N(C)C (configuration not stated)	0.94
CCN(CC)C(C)CN1c2ccccc2Sc2ccccc21 (configuration not stated)	0.933
CN(CCC(N)CC(=O)N[C@H]1C=CC(n2ccc(N)nc2=O)O[C@@H]1C(=O)O)C(=N)N (some centres not stated)	0.885
CC1CCC2(OC1)OC1CC3C4CCC5C[C@@H](O)CCC5(C)C4=CCC3(C)C1[C@@H]2C (some centres not stated)	0.983
NC(Cc1ccc(F)cc1)C(=O)O (configuration not stated)	1.02

*Q* Find the recorded normalized growth belonging to `N[C@H](Cc1cc(I)c(Oc2ccc(O)c(I)c2)c(I)c1)C(=O)O` and report it.
*A* 0.988

*Q* Param item = Nc1ccn(C2O[C@H](CO)[C@@H](O)[C@H]2O)c(=O)n1 (some centres not stated) ; retrieve measured normalized growth.
*A* 0.983

*Q* Looking for the measured normalized growth of CC(CN(C)C)CN1c2ccccc2Sc2ccccc21 (configuration not stated) , can you help?
*A* 1.01

*Q* Which value of normalized growth has been reported for `C[C@H](N)[C@H](O)c1cccc(O)c1` in the records?
*A* 1
